Test system: NCI-H522
experimental_details: NCI tumour cell line growth inhibition, 48 h
Calls of active or inactive are those of the source. Cut-off read from the data, not from the text of the source: active = GI50 up to about 1.1 µM and inactive = higher.
The reply should be one of these categories: 1.0 (active), 0.0 (inactive)

Record excerpt, results attached:
molecule	tested_system	class_name
c1ccc(-c2cs[s+]c2)cc1	NCI-H522	0.0
COc1cccc(/N=N/C(=NNC(=O)c2ccc(C)cc2)c2ccc(N(C)C)cc2)c1	NCI-H522	0.0

Prompt: GET /call?item= COC(=O)C(Cc1c(C2Nc3ccccc3C2CC(NC(=O)CNC(C)=O)C(=O)OC)[nH]c2ccccc12)NC(=O)CNC(C)=O (stereo unspecified) returns the recorded outcome of this test.
Response: 0.0

Prompt: Any idea what this test logged for CCOC(=O)C(CCCNC(=O)OC(C)(C)C)N(Cc1ccc(OC)cc1OC)C(=O)CC(=O)CP(=O)(OCC)OCC (stereo unspecified) ?
Response: 0.0
